Biological target: T1, human CD25 on cells (human, UniProt P01589 22-272)
T1 construct: whole, on cells; also called CD25 on SU-DHL-1 cells; CHO-K1-CD25 cells (clone 2F8)
T1 sequence (looked up): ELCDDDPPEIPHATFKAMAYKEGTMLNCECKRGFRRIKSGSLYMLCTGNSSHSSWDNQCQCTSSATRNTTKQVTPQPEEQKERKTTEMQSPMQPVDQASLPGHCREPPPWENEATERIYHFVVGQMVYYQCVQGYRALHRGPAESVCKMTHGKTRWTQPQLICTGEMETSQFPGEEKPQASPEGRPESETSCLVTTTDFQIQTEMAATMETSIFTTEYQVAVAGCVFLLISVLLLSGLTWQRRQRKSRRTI
Test: flow cytometry on SU-DHL-1 cells
// classify: if (EC50 < 200 pM) Condition met else Condition not met

As a guide, the following entries are already answered.
binder	classification
cAb042 (antibody, human IgG1, V domains shown, also called mAb042/cAb042) VH: QVQLQQSGPELVKSGASVKLSCKASGYTFTTYDINWMKQRPGQGLEWIGWIYPRDGSTKYNAKFKGKATLTEDTSSNTAFMELHSLTSEDSAVYFCARERIYDGSFDYWGQGTTLTVSS VL: DIVMTQSPSSLSVSAGEKVSMRCKSSQRLFNSRDQKNYLAWYQQKPGQPPKLLIYGASTRESGVPDRFTGSGSGTDFTLTISSVQAEDLAVYYCQNDHIYPLTFGAGTKLELK	Condition not met
cAb001 (antibody, V domains shown, also called mAb001/cAb001) VH: QVTLKESGPGILQPSQTLSLTCSFSGFSLNTFGMGVGWIRQPSGKGLEWLAHIWWDDDKYYNPALKSRLTISKDTSKNQVFLKIANVDTADTVTYYCARITTEVGNYDVWGMGTTVTVSS VL: EIVLTQSPALMAASPGEKVTITCSVSSGITSNNLHWYQQKSETSPKPWIYGTSNLASGVPIRFSGSGSGTSYSLTISSMEAEDAATYYCQQWSSYPFTFGSGTKLEIK	Condition met

Task item: Confirm or reject: EC50 of cAb002 (antibody, human IgG1, V domains shown, also called mAb002/cAb002) VH: QVTLKESGPGILQPSQTLSLTCSFSGFSLSTFGLGVGWIRQPSGKGLEWLAQIWWDDDEYYNPALKSRLTISKDTSRNQVFLKIANVDTGDTATYFCARMGDTYWYFDVWGTGTTVAVSS VL: EIVVTQSPALMAVSPGEKVTITCSLSSGITSSNLHWYQQKSETSPKPWIYGTSNLASGVPVRFSGSGSKTSYSLTISSMEAEDAATYYCQQWSSYPFTFGSGTKLEIK lies strictly below 200 pM
Reply: Condition met

Task item: Consider cAb006 (antibody, human IgG1, V domains shown, also called mAb006/cAb006) VH: QIQLQQSGAELMKPGASVKLSCKATGYTFTGHWIEWVKQRPGHGLEWVGEILPGSNKINYNEKFKGKATFTAETSSNTVYMQLSSLTTEDSAIYYCAGGGGPHWPFAFWGQGSLVTVSA VL: DIVLTQSPASLTVSLGQRATISCRASESVNVHGAHLMHWYQQKPGQPPKLLIYAASILESGVPARFSGSGSETDFTLNIHPVEEEDAATYFCQQTIEDPRTFGGGTKLEIK . Does its EC50 lie strictly below 200 pM?
Reply: Condition not met

Task item: Dear colleague, could you confirm whether EC50 of cAb028 (antibody, human IgG1, V domains shown, also called mAb028/cAb028) VH: EVQLQQSGAELVRPGASVKLSCTASGFNIKNDYVHWVKQRPEQGLEWIGYIDPDNGDTEYASKFLGKATITADTSSNTAYLQLSSLTSEGTAVYYCTTDDTSYGMFACWGLGTLVTVSA VL: DVLMTQTPLSLPVSLGDQASISCRSSQSIVHSNGNTYLEWYLQKPGQSPKLLIYKVSNRFSGVPDRFSGSGSGTDFTLKISRVEAEDLGVYYCFQGSHVPWTFGGGTKLEIK falls below 200 pM? Thanks.
Reply: Condition met

Task item: Dear reviewer, please state whether cAb037 (antibody, human IgG1, V domains shown, also called mAb037/cAb037) VH: QVRLQQSGPELVKPGASVQMSCKASGYTFTDYYINWVKQRPGQGLEWIAWIFPGNGNTYFNENFKDKATLSVDKFSSTAFMLLSSLTSEDSAVYFCARATYDHGGYWYFDVWGTGTTVTVSS VL: QIVLSQSPAILSASPGEKVTMTCRASSSVSHIHWYQQKPGSSPKPWIYATSNLASGVPGRFSGSGSGTSYSLTVSRVEAEDAATYYCQHWNSFTFGGGTELELK has EC50 strictly beneath 200 pM.
Reply: Condition met

Task item: Please let me know if cAb004 (antibody, human IgG1, V domains shown, also called mAb004/cAb004) VH: EVQLQQSGAELVRPGASVKLSCTASGFNIKDDYIQWVKQRPEQGLEWIGWIDPENGDTEYASKFQDKATITSDTSSNTAYLQLSSLTSEDTAVYYCAATTFYASNYGFAYWGQGTLVTVSA VL: DVVMTQTPLSLPVSLGDQASISCRSSQSLVHSNGNTYLHWYLQKPGQSPQLLIYKVSNRFSGVPDRFSGSGSGTDFTLKISRLEAEDLGVYFCSQSTHVPYTFGGGTKLEIK shows EC50 below 200 pM.
Reply: Condition met

Task item: Input cAb046 (antibody, human IgG1, V domains shown, also called mAb046/cAb046) VH: EVQLVESGGGLVKPGGSLKLSCAASGFTFSSYAMSWVRQTPEKRLEWVATISEGGSYTYYPDNVKGRFTISRDNARNNLYLQMSHLKSEDTAMYLCVRDNPWFAYWGQGTLVTVST VL: DVLMTQTPLSLPVSLGDRASISCRSSQNIVHSNGNTYLEWFLQKPGQSPKLLIYKVSKRFSGVPDRFSGSGSGTDFTLKISRVEAEDLGVYYCFQGSHVPYTFGGGTKLEIK ; condition: EC50 strictly below 200 pM. Does it hold?
Reply: Condition not met

Task item: Criterion: EC50 strictly below 200 pM. Is it met by cAb029 (antibody, human IgG1, V domains shown, also called mAb029/cAb029) VH: QVTLKESGPGILQPSQTLSLTCSFSGFSLSTFGMGVGWIRQPSGKGLEWLAHIWWDDDEYYNPALKSRLTISKDTSKNQVFLKIANVDTADTATYYCTRIMLTTGYFDVWGTGTTVTVSS VL: EIVLTQSPALMAASPGEKVTITCTVSSGITSSNLHWYQQKSETSPKPWIYGTSNLASGVPVRFSGSGSGTSYSLTISSMEAEDAATYYCQQWSSYPFTFGSGTRLEIK ?
Reply: Condition met
